Parameter % parasite recognition: see the listing below.
SYSTEM UNDER TEST: erythrocytes infected with P. falciparum field isolate 9106
METHOD DESCRIPTION: flow cytometry, staining of IEs
Number only, in %; omit the unit.

Solved entries:
MGD55 (antibody) VH: QVQLQESGPGLVKPSGTLSLTCTVSGGSISAYKWWSWVRQAPGKGLEWIGQVYHNGNTNYNPSLKGRVAMSVDKSKNRFSLRLASVTAADTAVYYCATISPLRPQSDTDDLPRPSISAEPGTVIPLGSHVTFVCRGPIGVQTFRLERESRSLYSDTEDVSQVSPFASEARFRIDSVSEGNAGPYRCIYYKDRKWSDQSDYLELLVKGEDVTWALPQSQLAPRACPQEELNISTDIFSMNVWGKGTTVTVSS VL: AIRMTQSPASLSASIGDRVTITCRTSQDVGNYLDWYQQKPGKAPKLLIHGASTLQTGVPSRFSGSGAGTDFTLNITCLQSGDFAMYYCQQYYSSPPGFGQGTRLEIK ... 14.3
MGC36 (antibody) VH: EVVLVESGGGLVQPGGSLRLSCEASGFNSRSYWMTWVRQAPGKGLEWVASINQDGTEKNYVDSVKGRFTISRDSAKNSLYLQMSSLRADDTAVYYCARDRFCGGESHLHGEEDLPRPSISAEPDTVIPLGSHVTFVCRGPVGVHTFRLERGWRYNDTEDVSQAGPSESEARFRIDSVREGNAGLYRCIYYIAPKWSEQSDYLELRVKGGDVTWALLTYCGGDGEESDYPMDVWGKGTTVTVSS VL: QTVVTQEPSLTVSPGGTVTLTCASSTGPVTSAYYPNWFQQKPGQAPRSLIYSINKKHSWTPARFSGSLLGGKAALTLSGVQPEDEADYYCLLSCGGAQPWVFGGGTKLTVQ ... 6.9
MGC2 (antibody) VH: EVQLVESGGGLVQPGGSLRLSCAASGFTFSNFWMGWVRQTPGKGLEWVANIKEDGSEKYYVDSVRGRFTISRDSAKNSLYLQMNSLRAEDTAVYYCVRERFCSNHIHKEEHLPRPSISPEPGTVITLGSHVTFVCRGPVGVQTFRLEKDSRSTYNDTEDVSQPSPSESEARFRIDSVSEGYAGLYRCLYYKPPKWSEQSDYLELLVKGDDVTWALYPSCGGDGEASDYNMDVWGKGTTVTVSS VL: DIQMTQSPSTLSASVGDRVTISCRASQRFSGWLAWYQQKPGKAPNLLIYKASPLAGGGPSRFSGSGSGTDFTLTISSLQPDDSATYYCQHYSNYSYTFGQGTKLEIR ... 5.6
MGD33 (antibody) VH: HVQLQESGPGLVKPSETLSLSCAVTGGSITSSKWWTWVRQGPDKGLEWIGKIYHNGTTNYNPSLKSRVAMSVDKSKNQFSLRLTSVTAADTAVYYCATASPFKSHHRTTEKLPRPSISAEPGTVIPLGSRVTFVCRGPVGVQTFRLERETRSTYNDTEDVSQVSPSESEARFRIDSVSEGYAGPYRCVYYKAPKWSEQSDYLDLLVKGEDVTWALTQPQLDPRACPQGDLRMSTDIYCMDVWGKGTTVTVSS VL: AIRLTQSPSSLSASIGDRVTITCRASQDISTYLAWYQQESGKAPRLLIFAASSLQTGVPSRFSGSGSGTDFTLTISGLQSEDFATYYCQQYYCFPPDFGQGTRLDIK ... 4.3
MGD47 (antibody) VH: QVRLQESGPGLVKPSGTLSLTCTVSGGSISGYKWWSWVRQAPGKGLEWIGQVYDDGDTNYNPDLKGRVALSVDKSKSRFSLSLASVTAADTAIYFCATISPLRPQSDTGDLPRPSISAEPGTAIPLGSQVTFVCRGPIGVQTFRLERESRALYNDSEDVSQVSPSASEARFRIDSVSEGNAGPYRCIYYKARRWSDQSDYLELLVKGEDVTWALPQSQLAPRACPQEDLNISTDIFSTNVWGKGTTVTVSS VL: AIRMTQSPASLSASVGDRVTITCRTSQDVGNYLDWYQQKPGKAPKLLIHGASTLQAGVPSRFNGSGSGTDFTLGISCVQSGDFAIYYCQQYYTSPPVFGQGTRLEIK ... 10.7

Requested field: % parasite recognition. Item: MGC4 (antibody) VH: EVQLVESGGGLVQPGGSLRLSCEGSGFNSRSYWMTWVRQAPGKGLEWVASINQDGTEKNYVDSVKGRFTISRDSAKNSLYLQMSSLRADDTAVYYCARDRFCGGESHLHGEEDLPRPSISAEPDTVIPLGSHVTFVCRGPVGVHTFRLERGWRYNDTEDVSQAGPSESEARFRIDSVREGNAGLYRCIYYIAPKWSEQSDYLELRVKGGDVTWALLTYCGGDGEESDYPMDVWGKGTTVTVSS VL: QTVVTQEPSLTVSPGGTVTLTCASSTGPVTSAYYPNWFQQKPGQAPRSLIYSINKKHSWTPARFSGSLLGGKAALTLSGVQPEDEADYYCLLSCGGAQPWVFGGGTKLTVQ
6.7

Return reported % parasite recognition; argument: MGC35 (antibody) VH: EVQLVESGGGLVQPGGSLRLSCEASGFNSRSYWMTWVRQAPGKGLEWVASINQDATEKNYVDSVKGRFTISRDTAKNSLYLQMNSLRAEDTAVYYCARDRFCGGESHLHGQEDLPRPSISAEPGSVIPLGSLVTFVCRGPVGVHTFRLERGWTYNDTEDVSQAGPSESEARFRMDSVREGNAGLYRCIYYKPPKWSEQSAYLELRVKGGDVTWALLTYCGGDGEESDYPMDVWGKGTTVTVSS VL: QTVVTQEPSLTVSPGGTVTLTCASSTGPVTSAYYPNWFQQKPGQAPRSLIYNINKKHSWTPDRFSGSLLGGKAALTLSGVQPEDEADYYCLLSCGGAQPWVFGGGTKLTVQ
6.5
